Hey, just so you know, these numbers are from patent US11225505B2.

Tested on: Klebsiella pneumoniae Kp BM1
Format: cell-based
Conditions: Kp BM1
Where a SMILES comes first, the peptide text is derived from it. Bridges are numbered along the chain shown (N, C = ends). [ ]: non-standard residue; d: D form. The star is where a group is joined. X37 = O=C(c1ccc(-c2ccc(Cl)cc2)s1)*; X24 = O=C(c1cccc(C(F)(F)F)n1)*; dNle = CCCC[C@@H](N)C(=O)O; X29 = O=C(c1cc(Cl)ccn1)*; Dab = NCC[C@H](N)C(=O)O; Abu = CC[C@H](N)C(=O)O; Dap = NC[C@H](N)C(=O)O
Can you tell me Minimum inhibitory concentration for the items I'm about to list?

Indicate the recorded Minimum inhibitory concentration value for this molecule: CC[C@@H]1NC(=O)[C@@H](CC(C)C)NC(=O)[C@H](CCN)NC(=O)[C@@H](NC(=O)[C@H](CN)NC(=O)[C@@H](NC(=O)[C@H](CCN)NC(=O)c2cccc(C(F)(F)F)n2)[C@@H](C)O)CCNC(=O)[C@H]([C@@H](C)O)NC(=O)[C@H](CCN)NC(=O)[C@H](CCN)NC1=O [Compound 44] (X24-[Dab]T[Dap][Dab][Dab][dL][Abu][Dab][Dab]T; lactam 4-C)
<0.125 µg/mL

Indicate the recorded Minimum inhibitory concentration value for this molecule: CCCC[C@H]1NC(=O)[C@H](CCN)NC(=O)[C@@H](NC(=O)[C@H](CN)NC(=O)[C@@H](NC(=O)[C@H](CCN)NC(=O)c2cc(Cl)ccn2)[C@@H](C)O)CCNC(=O)[C@H]([C@@H](C)O)NC(=O)[C@H](CCN)NC(=O)[C@H](CCN)NC(=O)[C@H](CC)NC1=O [Compound 95] (X29-[Dab]T[Dap][Dab][Dab][dNle][Abu][Dab][Dab]T; lactam 4-C)
0.5 µg/mL

Indicate the recorded Minimum inhibitory concentration value for this molecule: CC(C)C[C@H]1NC(=O)[C@H](CCN)NC(=O)[C@@H](NC(=O)[C@H](CN)NC(=O)[C@@H](NC(=O)[C@H](CCN)NC(=O)c2ccc(-c3ccc(Cl)cc3)s2)[C@@H](C)O)CCNC(=O)[C@H]([C@@H](C)O)NC(=O)[C@H](CCN)NC(=O)[C@H](CCN)NC(=O)[C@H]([C@@H](C)O)NC1=O [Compound 17] (X37-[Dab]T[Dap][Dab][Dab][dL]T[Dab][Dab]T; lactam 4-C)
0.5 µg/mL

---

Can you tell me Minimum inhibitory concentration for the items I'm about to list?
Tested on: Pseudomonas aeruginosa FADDI-PA01
Type: cell-based
Conditions: FADDI-
Where a SMILES comes first, the peptide text is derived from it. Bridges are numbered along the chain shown (N, C = ends). [ ]: non-standard residue; d: D form. The star is where a group is joined. X43 = O=C(c1ccc(-c2ccc(Cl)cc2)cn1)*; X55 = O=C(c1ccc(-c2ccc(Cl)nc2)cc1)*; X47 = O=C(c1cc2cc(Cl)ccc2[nH]1)*; X6 = Cn1c(C(=O)*)cc2cc(Cl)ccc21; X2 = O=C(c1cc(Cl)cc(Cl)n1)*; X1 = O=C(c1ncc(Cl)cc1Cl)*; X39 = O=C(c1noc2ccccc12)*; X25 = O=C(c1ccnc(Cl)c1)*; X26 = CCc1ccc(C(=O)*)cn1; X29 = O=C(c1cc(Cl)ccn1)*; Dab = NCC[C@H](N)C(=O)O; Abu = CC[C@H](N)C(=O)O; Dap = NC[C@H](N)C(=O)O
Field: numeric (µg/mL). Do not append units.

Please respond with reported Minimum inhibitory concentration (system Pseudomonas aeruginosa FADDI-PA01) for CC[C@@H]1NC(=O)[C@@H](CC(C)C)NC(=O)[C@H](CCN)NC(=O)[C@@H](NC(=O)[C@H](CN)NC(=O)[C@@H](NC(=O)[C@H](CCN)NC(=O)c2ccnc(Cl)c2)[C@@H](C)O)CCNC(=O)[C@H]([C@@H](C)O)NC(=O)[C@H](CCN)NC(=O)[C@H](CCN)NC1=O [Compound 24] (X25-[Dab]T[Dap][Dab][Dab][dL][Abu][Dab][Dab]T; lactam 4-C) .
0.25

Please respond with reported Minimum inhibitory concentration (system Pseudomonas aeruginosa FADDI-PA01) for CC[C@@H]1NC(=O)[C@@H](CC(C)C)NC(=O)[C@H](CCN)NC(=O)[C@@H](NC(=O)[C@H](CN)NC(=O)[C@@H](NC(=O)[C@H](CCN)NC(=O)c2cc(Cl)cc(Cl)n2)[C@@H](C)O)CCNC(=O)[C@H]([C@@H](C)O)NC(=O)[C@H](CCN)NC(=O)[C@H](CCN)NC1=O [Compound 18] (X2-[Dab]T[Dap][Dab][Dab][dL][Abu][Dab][Dab]T; lactam 4-C) .
0.25

Please respond with reported Minimum inhibitory concentration (system Pseudomonas aeruginosa FADDI-PA01) for CC[C@@H]1NC(=O)[C@@H](CC(C)C)NC(=O)[C@H](CCN)NC(=O)[C@@H](NC(=O)[C@H](CN)NC(=O)[C@@H](NC(=O)[C@H](CCN)NC(=O)c2cc3cc(Cl)ccc3[nH]2)[C@@H](C)O)CCNC(=O)[C@H]([C@@H](C)O)NC(=O)[C@H](CCN)NC(=O)[C@H](CCN)NC1=O [Compound 59] (X47-[Dab]T[Dap][Dab][Dab][dL][Abu][Dab][Dab]T; lactam 4-C) .
0.25

Please respond with reported Minimum inhibitory concentration (system Pseudomonas aeruginosa FADDI-PA01) for CC(C)C[C@H]1NC(=O)[C@H](CCN)NC(=O)[C@@H](NC(=O)[C@H](CN)NC(=O)[C@@H](NC(=O)[C@H](CCN)NC(=O)c2ccc(-c3ccc(Cl)cc3)cn2)[C@@H](C)O)CCNC(=O)[C@H]([C@@H](C)O)NC(=O)[C@H](CCN)NC(=O)[C@H](CCN)NC(=O)[C@H]([C@@H](C)O)NC1=O [Compound 15] (X43-[Dab]T[Dap][Dab][Dab][dL]T[Dab][Dab]T; lactam 4-C) .
2

Please respond with reported Minimum inhibitory concentration (system Pseudomonas aeruginosa FADDI-PA01) for CC[C@@H]1NC(=O)[C@@H](CC(C)C)NC(=O)[C@H](CCN)NC(=O)[C@@H](NC(=O)[C@H](CN)NC(=O)[C@@H](NC(=O)[C@H](CCN)NC(=O)c2noc3ccccc23)[C@@H](C)O)CCNC(=O)[C@H]([C@@H](C)O)NC(=O)[C@H](CCN)NC(=O)[C@H](CCN)NC1=O [Compound 75] (X39-[Dab]T[Dap][Dab][Dab][dL][Abu][Dab][Dab]T; lactam 4-C) .
0.5

Please respond with reported Minimum inhibitory concentration (system Pseudomonas aeruginosa FADDI-PA01) for CC(C)C[C@H]1NC(=O)[C@H](CCN)NC(=O)[C@@H](NC(=O)[C@H](CN)NC(=O)[C@@H](NC(=O)[C@H](CCN)NC(=O)c2ccc(-c3ccc(Cl)nc3)cc2)[C@@H](C)O)CCNC(=O)[C@H]([C@@H](C)O)NC(=O)[C@H](CCN)NC(=O)[C@H](CCN)NC(=O)[C@H]([C@@H](C)O)NC1=O [Compound 16] (X55-[Dab]T[Dap][Dab][Dab][dL]T[Dab][Dab]T; lactam 4-C) .
0.5

Please respond with reported Minimum inhibitory concentration (system Pseudomonas aeruginosa FADDI-PA01) for CC[C@@H]1NC(=O)[C@@H](CC(C)C)NC(=O)[C@H](CCN)NC(=O)[C@@H](NC(=O)[C@H](CN)NC(=O)[C@@H](NC(=O)[C@H](CCN)NC(=O)c2cc3cc(Cl)ccc3n2C)[C@@H](C)O)CCNC(=O)[C@H]([C@@H](C)O)NC(=O)[C@H](CCN)NC(=O)[C@H](CCN)NC1=O [Compound 58] (X6-[Dab]T[Dap][Dab][Dab][dL][Abu][Dab][Dab]T; lactam 4-C) .
0.5

Please respond with reported Minimum inhibitory concentration (system Pseudomonas aeruginosa FADDI-PA01) for C[C@@H](O)[C@@H]1NC(=O)[C@H](CCN)NC(=O)[C@H](CCN)NC(=O)[C@H]([C@@H](C)O)NC(=O)[C@@H](Cc2ccccc2)NC(=O)[C@H](CCN)NC(=O)[C@@H](NC(=O)[C@H](CN)NC(=O)[C@@H](NC(=O)[C@H](CCN)NC(=O)c2ncc(Cl)cc2Cl)[C@@H](C)O)CCNC1=O [Compound 11] (X1-[Dab]T[Dap][Dab][Dab][dF]T[Dab][Dab]T; lactam 4-C) .
0.5

Please respond with reported Minimum inhibitory concentration (system Pseudomonas aeruginosa FADDI-PA01) for CC(C)C[C@H]1NC(=O)[C@H](CCN)NC(=O)[C@@H](NC(=O)[C@H](CN)NC(=O)[C@@H](NC(=O)[C@H](CCN)NC(=O)c2cc(Cl)ccn2)[C@@H](C)O)CCNC(=O)[C@H]([C@@H](C)O)NC(=O)[C@H](CCN)NC(=O)[C@H](CCN)NC(=O)[C@H]([C@@H](C)O)NC1=O [Compound 98] (X29-[Dab]T[Dap][Dab][Dab][dL]T[Dab][Dab]T; lactam 4-C) .
0.25

Please respond with reported Minimum inhibitory concentration (system Pseudomonas aeruginosa FADDI-PA01) for CCc1ccc(C(=O)N[C@@H](CCN)C(=O)N[C@H](C(=O)N[C@@H](CN)C(=O)N[C@H]2CCNC(=O)[C@H]([C@@H](C)O)NC(=O)[C@H](CCN)NC(=O)[C@H](CCN)NC(=O)[C@H](CC)NC(=O)[C@@H](CC(C)C)NC(=O)[C@H](CCN)NC2=O)[C@@H](C)O)cn1 [Compound 41] (X26-[Dab]T[Dap][Dab][Dab][dL][Abu][Dab][Dab]T; lactam 4-C) .
0.25
